- protocol_details: AUC in rat at 10 mg/kg, po
- Type: ADME, organism-based
- Set-up: dose 10 mg/kg, route oral
- details: plasma
endpoint_label: AUC (µM·h)

{"structure": "CS(=O)(=O)N1CCC([C@@H]2c3ccc(Cl)cc3C(N3CCNCC3)=Cc3cccnc32)CC1", "endpoint_label": "AUC", "readout_units": "µM·h", "quantitative_readout": 4}

###

Recorded pIC50, one value per entry.
- target_or_test_system: Protein farnesyltransferase (Homo sapiens, UniProt P49354+P49356)
- protocol_details: Inhibition of farnesyltransferase activity
- Type: protein-complex assay
pIC50: −log10 of the molar value.
endpoint_label: pIC50

{"structure": "CS(=O)(=O)N1CCC([C@@H]2c3ccc(Cl)cc3C(N3CCNCC3)=Cc3cccnc32)CC1", "endpoint_label": "pIC50", "quantitative_readout": 8.15}
{"structure": "CS(=O)(=O)N1CCC([C@@H]2c3ccc(Cl)cc3C=C(N3CCNCC3)c3cccnc32)CC1", "endpoint_label": "pIC50", "quantitative_readout": 7.12}
{"structure": "CS(=O)(=O)N1CCC([C@H]2c3ccc(Cl)cc3C=C(N3CCNCC3)c3cccnc32)CC1", "endpoint_label": "pIC50", "quantitative_readout": 6.82}

FYI, the data here is from ChEMBL document CHEMBL1138145.
